Target: T1, ZFP SBS#919 (synthetic)
T1 chain: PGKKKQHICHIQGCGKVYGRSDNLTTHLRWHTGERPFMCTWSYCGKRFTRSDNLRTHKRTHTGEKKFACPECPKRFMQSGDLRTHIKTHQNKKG
Assay: EMSA
Conditions: tags: MBP fusion
readout name: Kd (nM)
Kindly provide the numeric value in nM only, without the unit symbol.

Name the recorded Kd of the binder listed here: TCATAGTAG (dsDNA) DNA 1: TCATAGTAG DNA 2: CTACTATGA
250

meta.source: patent US20030068675
